RUN DESCRIPTION: xn = mol fraction of the nth substance listed
CONDITION NOTES: 308.15 K, Wilhelmy plate method, x1 = 0.6
Could you please report measured surface tension liquid-gas for the items listed next?
Answer with a number only, understood to be in mN/m.

Fill blank: measured surface tension liquid-gas of the compound CCOC(=O)CC(C)=O [ethyl 3-oxobutanoate] + CCO is ____.
27.38

Fill blank: measured surface tension liquid-gas of the compound CC(=O)OCc1ccccc1 [benzyl ethanoate] + CCO is ____.
29.3

Fill blank: measured surface tension liquid-gas of the compound CCOC(=O)c1ccccc1O [ethyl 2-hydroxybenzoate] + CCO is ____.
28.26

Fill blank: measured surface tension liquid-gas of the compound CCOC(=O)CC(C)C [ethyl 3-methylbutanoate] + CCO is ____.
22.08

Fill blank: measured surface tension liquid-gas of the compound COC(=O)c1ccccc1 [methyl benzoate] + CCO is ____.
29.2

Fill blank: measured surface tension liquid-gas of the compound CCC(=O)OCc1ccccc1 [benzyl propanoate] + CCO is ____.
28.37

* * *

RUN DESCRIPTION: refractive index (Na D-line) (dimensionless); xn = mol fraction of the nth substance listed
CONDITION NOTES: 288.15 K; 100.5 kPa; Liquid; Standard Abbe refractometry; x1 = 0.25
Could you please report measured refractive index for the items listed next?
No unit in the answer, please; the number alone is enough.

Fill blank: measured refractive index of the molecule CC(=O)OCc1ccccc1 [benzyl ethanoate] + CCO is ____.
1.42813

Fill blank: measured refractive index of the molecule CCC(=O)OCc1ccccc1 [benzyl propanoate] + CCO is ____.
1.42966

Fill blank: measured refractive index of the molecule CCOC(=O)c1ccccc1O [ethyl 2-hydroxybenzoate] + CCO is ____.
1.43914

Fill blank: measured refractive index of the molecule CCOC(=O)CC(C)=O [ethyl 3-oxobutanoate] + CCO is ____.
1.3882

Fill blank: measured refractive index of the molecule CCOC(=O)CC(C)C [ethyl 3-methylbutanoate] + CCO is ____.
1.37993

Fill blank: measured refractive index of the molecule COC(=O)c1ccccc1 [methyl benzoate] + CCO is ____.
1.43052

* * *

RUN DESCRIPTION: refractive index (Na D-line) (dimensionless); xn = mol fraction of the nth substance listed
CONDITION NOTES: 308.15 K; 100.5 kPa; Liquid; Standard Abbe refractometry; x1 = 0.3
PROPERTY NAME: refractive index
No unit in the answer, please; the number alone is enough.

Fill blank: measured refractive index of the molecule CCOC(=O)CC(C)C [ethyl 3-methylbutanoate] + CCO is ____.
1.37321

Fill blank: measured refractive index of the molecule CCOC(=O)CC(C)=O [ethyl 3-oxobutanoate] + CCO is ____.
1.3833

Fill blank: measured refractive index of the molecule CCC(=O)OCc1ccccc1 [benzyl propanoate] + CCO is ____.
1.42944

Fill blank: measured refractive index of the molecule CCOC(=O)c1ccccc1O [ethyl 2-hydroxybenzoate] + CCO is ____.
1.44012

Fill blank: measured refractive index of the molecule COC(=O)c1ccccc1 [methyl benzoate] + CCO is ____.
1.43104

Fill blank: measured refractive index of the molecule CC(=O)OCc1ccccc1 [benzyl ethanoate] + CCO is ____.
1.4281

* * *

RUN DESCRIPTION: refractive index (Na D-line) (dimensionless); xn = mol fraction of the nth substance listed
CONDITION NOTES: 288.15 K; 100.5 kPa; Liquid; Standard Abbe refractometry; x1 = 0.65
± gives the expanded uncertainty stated by the source.
PROPERTY NAME: refractive index

Fill blank: measured refractive index of the molecule CC(=O)OCc1ccccc1 [benzyl ethanoate] + CCO is ____.
1.47987 ± 0.00032

Fill blank: measured refractive index of the molecule CCOC(=O)CC(C)C [ethyl 3-methylbutanoate] + CCO is ____.
1.39264 ± 0.00034

Fill blank: measured refractive index of the molecule CCC(=O)OCc1ccccc1 [benzyl propanoate] + CCO is ____.
1.47807 ± 0.00033

Fill blank: measured refractive index of the molecule CCOC(=O)c1ccccc1O [ethyl 2-hydroxybenzoate] + CCO is ____.
1.49763 ± 0.00032

Fill blank: measured refractive index of the molecule COC(=O)c1ccccc1 [methyl benzoate] + CCO is ____.
1.48938 ± 0.00033

Fill blank: measured refractive index of the molecule CCOC(=O)CC(C)=O [ethyl 3-oxobutanoate] + CCO is ____.
1.41 ± 0.0003
